# system name: Mu-type opioid receptor (Mus musculus)
# Sequence (P42866 whole entry): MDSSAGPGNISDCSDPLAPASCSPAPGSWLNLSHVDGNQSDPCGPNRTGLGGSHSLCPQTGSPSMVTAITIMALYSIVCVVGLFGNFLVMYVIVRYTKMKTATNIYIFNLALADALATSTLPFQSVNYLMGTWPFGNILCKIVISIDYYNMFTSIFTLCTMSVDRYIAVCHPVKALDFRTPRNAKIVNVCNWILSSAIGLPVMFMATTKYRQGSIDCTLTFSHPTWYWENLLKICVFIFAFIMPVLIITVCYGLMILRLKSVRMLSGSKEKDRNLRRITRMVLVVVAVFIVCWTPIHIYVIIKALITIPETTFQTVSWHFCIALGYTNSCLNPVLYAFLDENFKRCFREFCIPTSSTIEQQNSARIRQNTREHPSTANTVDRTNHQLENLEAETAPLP
# experiment: Ki value determined against Opioid receptor mu 1 using [3H]DAMGO at the Kd concentration 0.57 nM
experimental readout: inhibition
Please give the number followed by its unit.

Example cases with answers are listed next.
INSERT INTO measurements (molecule, system_name, observed) VALUES
  ('CC1C2Cc3ccc(O)cc3[C@@]1(C)CCN2CC#N (stereo partly drawn)', 'Mu-type opioid receptor (Mus musculus)', '18.6%'),
  ('CC1C2Cc3ccc(O)cc3[C@@]1(C)CCN2CCC#N (stereo partly drawn)', 'Mu-type opioid receptor (Mus musculus)', '11.6%'),
  ('C=CCCN1CC[C@]2(C)c3cc(O)ccc3CC1C2C (stereo partly drawn)', 'Mu-type opioid receptor (Mus musculus)', '41%'),
  ('CC1C2Cc3ccc(O)cc3[C@@]1(C)CCN2CCCCCCC#N (stereo partly drawn)', 'Mu-type opioid receptor (Mus musculus)', '37%'),
  ('C=CCCCN1CC[C@]2(C)c3cc(O)ccc3CC1C2C (stereo partly drawn)', 'Mu-type opioid receptor (Mus musculus)', '20.5%');

Field: inhibition. Fill in for each record below.
1. CC1C2Cc3ccc(O)cc3[C@@]1(C)CCN2CCCC#N (stereo partly drawn)
2. CC1C2Cc3ccc(O)cc3[C@@]1(C)CCN2CCCCCC#N (stereo partly drawn)
3. C=CCN1CC[C@]2(C)c3cc(O)ccc3CC1C2C (stereo partly drawn)

Response given:
1. 9%
2. 12.4%
3. 28.5%

###

pKi data for Kappa-type opioid receptor (Mus musculus) follow.
Give bare numbers, as −log10 of the molar value.

Worked examples follow.
INSERT INTO measurements (compound, experimental_readout, observed) VALUES
  ('CC1C2Cc3ccc(O)cc3[C@@]1(C)CCN2CCC#N (stereo partly drawn)', 'pKi', 6.22),
  ('C[C@H]1C2Cc3ccc(O)cc3[C@@]1(C)CCN2CCCCCC#N', 'pKi', 7.96),
  ('C#CCCN1CC[C@]2(C)c3cc(O)ccc3CC1[C@@H]2C', 'pKi', 8.85),
  ('C=CCCCN1CC[C@]2(C)c3cc(O)ccc3CC1C2C (stereo partly drawn)', 'pKi', 6.40),
  ('C[C@H]1C2Cc3ccc(O)cc3[C@@]1(C)CCN2CCC#N', 'pKi', 9.40);

Hi, could you look up pKi for each item in my list?
1. C[C@H]1C2Cc3ccc(O)cc3[C@@]1(C)CCN2CCCCC#N
2. C#CCCCN1CC[C@]2(C)c3cc(O)ccc3CC1[C@@H]2C
3. C[C@H]1C2Cc3ccc(O)cc3[C@@]1(C)CCN2CCCC#N
4. C=CCCN1CC[C@]2(C)c3cc(O)ccc3CC1[C@@H]2C
5. C[C@H]1C2Cc3ccc(O)cc3[C@@]1(C)CCN2CCCCCCC#N
6. C=CCN1CC[C@]2(C)c3cc(O)ccc3CC1[C@@H]2C
7. CC1C2Cc3ccc(O)cc3[C@@]1(C)CCN2CCCCC#N (stereo partly drawn)

Response given:
[8.16, 7.96, 9.40, 8.89, 7.42, 9.52, 5.89]

###

Here we list compounds with their recorded pKi when tested on UniProt P42866.
Answers are plain numbers, as −log10 of the molar value.

Check out these entries, answers already filled in.
INSERT INTO measurements (compound, system_name, observed) VALUES
  ('CC#CCN1CC[C@]2(C)c3cc(O)ccc3CC1[C@@H]2C (stereo in doubt; 12)', 'UniProt P42866', 9.30),
  ('C=CCCCCN1CC[C@]2(C)c3cc(O)ccc3CC1C2C (some centres undefined)', 'UniProt P42866', 6.01),
  ('C=CCN1CC[C@]2(C)c3cc(O)ccc3CC1[C@@H]2C', 'UniProt P42866', 9.05),
  ('C[C@H]1C2Cc3ccc(O)cc3[C@@]1(C)CCN2CCC#N', 'UniProt P42866', 8.38),
  ('C[C@H]1C2Cc3ccc(O)cc3[C@@]1(C)CCN2CCCC#N', 'UniProt P42866', 8.24);

For the 2 compounds below, give their pKi values.
1. C[C@H]1C2Cc3ccc(O)cc3[C@@]1(C)CCN2CCCCCCC#N
2. C#CCCCN1CC[C@]2(C)c3cc(O)ccc3CC1[C@@H]2C

Response given:
7.05
7.74

List the reported pKi of each compound below.
1. CC1C2Cc3ccc(O)cc3[C@@]1(C)CCN2CCCCC#N (some centres undefined)
2. C[C@H]1C2Cc3ccc(O)cc3[C@@]1(C)CCN2CCCCCC#N

Response given:
1: 5.32; 2: 7.82
